IC50 by entry:
- TARGET OR TEST SYSTEM: Fatty acid synthase (Homo sapiens, UniProt P49327)
- Sequence (P49327 whole entry): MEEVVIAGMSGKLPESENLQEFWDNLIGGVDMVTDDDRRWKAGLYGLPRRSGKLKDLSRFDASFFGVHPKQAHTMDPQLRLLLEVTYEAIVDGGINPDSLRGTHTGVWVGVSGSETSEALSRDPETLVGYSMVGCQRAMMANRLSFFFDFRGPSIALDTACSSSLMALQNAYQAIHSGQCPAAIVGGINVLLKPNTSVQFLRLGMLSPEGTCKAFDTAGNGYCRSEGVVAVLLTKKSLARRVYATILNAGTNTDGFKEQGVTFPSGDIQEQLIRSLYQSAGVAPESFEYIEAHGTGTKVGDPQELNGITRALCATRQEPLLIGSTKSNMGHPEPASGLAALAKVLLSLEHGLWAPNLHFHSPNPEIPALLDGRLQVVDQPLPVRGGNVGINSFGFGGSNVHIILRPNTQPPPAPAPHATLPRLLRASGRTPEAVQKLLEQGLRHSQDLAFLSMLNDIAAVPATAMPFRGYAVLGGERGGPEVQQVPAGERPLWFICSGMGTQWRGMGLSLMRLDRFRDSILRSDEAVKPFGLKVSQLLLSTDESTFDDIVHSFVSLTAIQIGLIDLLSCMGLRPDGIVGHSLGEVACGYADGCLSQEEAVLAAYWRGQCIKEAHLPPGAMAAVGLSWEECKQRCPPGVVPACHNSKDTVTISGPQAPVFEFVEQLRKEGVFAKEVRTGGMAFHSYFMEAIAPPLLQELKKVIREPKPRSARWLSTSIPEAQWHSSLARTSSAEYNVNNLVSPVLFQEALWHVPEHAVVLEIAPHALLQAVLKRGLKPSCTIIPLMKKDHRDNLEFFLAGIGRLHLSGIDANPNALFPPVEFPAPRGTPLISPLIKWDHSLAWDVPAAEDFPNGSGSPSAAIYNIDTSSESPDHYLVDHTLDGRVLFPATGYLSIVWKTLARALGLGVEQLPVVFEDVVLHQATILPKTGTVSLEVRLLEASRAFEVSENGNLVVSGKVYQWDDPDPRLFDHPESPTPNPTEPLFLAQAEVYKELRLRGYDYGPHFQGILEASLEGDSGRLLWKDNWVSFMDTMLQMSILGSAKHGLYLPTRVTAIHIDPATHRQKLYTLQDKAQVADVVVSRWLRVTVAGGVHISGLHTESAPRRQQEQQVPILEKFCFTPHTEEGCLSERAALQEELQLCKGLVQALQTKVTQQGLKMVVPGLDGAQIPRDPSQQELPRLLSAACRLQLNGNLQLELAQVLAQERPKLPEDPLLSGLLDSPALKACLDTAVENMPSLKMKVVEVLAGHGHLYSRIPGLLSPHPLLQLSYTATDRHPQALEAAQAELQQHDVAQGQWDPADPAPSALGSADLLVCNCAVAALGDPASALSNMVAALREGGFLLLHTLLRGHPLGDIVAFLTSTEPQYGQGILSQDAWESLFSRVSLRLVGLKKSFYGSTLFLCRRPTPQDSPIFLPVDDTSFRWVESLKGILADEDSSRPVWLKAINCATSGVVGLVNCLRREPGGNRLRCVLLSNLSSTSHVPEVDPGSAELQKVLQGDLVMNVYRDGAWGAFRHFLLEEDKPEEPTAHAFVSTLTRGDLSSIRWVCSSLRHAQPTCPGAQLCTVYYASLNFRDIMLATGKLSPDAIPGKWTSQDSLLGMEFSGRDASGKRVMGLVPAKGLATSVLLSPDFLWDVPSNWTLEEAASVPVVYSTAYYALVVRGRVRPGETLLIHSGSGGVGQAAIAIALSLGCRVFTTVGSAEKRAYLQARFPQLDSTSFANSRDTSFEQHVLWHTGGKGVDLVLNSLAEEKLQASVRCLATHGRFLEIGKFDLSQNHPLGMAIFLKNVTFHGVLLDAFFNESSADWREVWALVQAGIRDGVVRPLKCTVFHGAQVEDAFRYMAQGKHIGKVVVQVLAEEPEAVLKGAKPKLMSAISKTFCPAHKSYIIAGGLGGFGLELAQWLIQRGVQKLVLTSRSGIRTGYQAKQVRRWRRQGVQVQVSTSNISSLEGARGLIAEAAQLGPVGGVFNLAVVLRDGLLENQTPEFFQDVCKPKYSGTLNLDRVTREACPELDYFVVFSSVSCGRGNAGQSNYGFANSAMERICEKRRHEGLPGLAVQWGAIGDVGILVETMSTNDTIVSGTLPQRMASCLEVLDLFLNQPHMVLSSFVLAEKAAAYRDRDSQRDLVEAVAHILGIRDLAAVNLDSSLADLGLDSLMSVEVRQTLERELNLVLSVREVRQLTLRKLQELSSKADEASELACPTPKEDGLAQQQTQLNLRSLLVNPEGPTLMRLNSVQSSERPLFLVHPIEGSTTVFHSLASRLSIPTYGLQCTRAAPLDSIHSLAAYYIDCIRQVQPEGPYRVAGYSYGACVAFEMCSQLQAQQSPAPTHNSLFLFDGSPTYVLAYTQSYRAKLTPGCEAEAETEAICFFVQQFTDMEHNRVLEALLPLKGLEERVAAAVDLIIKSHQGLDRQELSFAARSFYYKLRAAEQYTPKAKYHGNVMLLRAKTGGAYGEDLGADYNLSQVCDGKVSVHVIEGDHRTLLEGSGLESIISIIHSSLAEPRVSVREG
- TEST PROTOCOL: inhibition of human FAS-TE enzyme activity – biochemical, endpoint fluorescence intensity, uHTS hits, dose response (AID 624327);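 note: fluorescence from hydrolysis of an O-methyl fluorescein acyl ester substrate by the enzyme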
- Assay type: functional
Activity calls are given as the source filed them.

| STRUCTURE NOTATION | IC50 |
| --- | --- |
| C=CCn1c(SCc2ccc(Br)cc2F)nc2cc(C(=O)O)ccc2c1=O | 11.4 µM (active) |
| Cc1nc2ccc([N+](=O)[O-])cc2c(=O)n1Cc1ccc([N+](=O)[O-])cc1 | 9.22 µM (active) |
| CC(C)C[C@@]12C(=O)N(c3ccc(Br)cc3)C(=O)N1[C@H](c1ccc(Br)cc1)[C@@H]1C(=O)N(C(C)(C)C)C(=O)[C@@H]12 | 15.9 µM (active) |
| Cc1ccc(S(=O)(=O)N[N-][C+]2CCC(C(C)(C)C)CC2)cc1[N+](=O)[O-] | 53 µM (inactive) |

---

- TEST PROTOCOL: NIH-3T3 fibroblast cytotoxicity, dose response, cytotoxicity control, cell-based, fluorescence, Alamar Blue, secondary assay (AID 2327);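 note: NIH-3T3 mouse fibroblasts cultured with fluconazole at 8 µg/mL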
- Format: functional
Activity calls are given as the source filed them.
METRIC NAME: EC50

| MOLECULE | METRIC NAME | MEASURED RESULT |
| --- | --- | --- |
| CC(CC(=O)Nc1ncc([N+](=O)[O-])s1)c1ccccc1 (centres undefined) | EC50 | > 150 µM (inactive) |
| OCc1ccc(O)c2ncccc12 | EC50 | > 150 µM (inactive) |
| Cc1cc2ccccn2c1C(C[N+](=O)[O-])c1c(F)cccc1Cl (centres undefined) | EC50 | > 160 µM (inactive) |
| COCCNC(=O)CCCn1c(=O)c2cc(OC)c(OC)cc2n(CC(=O)NCCC2=CCCCC2)c1=O | EC50 | > 160 µM (inactive) |

---

- TARGET OR TEST SYSTEM: Carboxy-terminal domain RNA polymerase II polypeptide A small phosphatase 1 (Homo sapiens, UniProt Q9GZU7)
- Sequence (Q9GZU7 whole entry): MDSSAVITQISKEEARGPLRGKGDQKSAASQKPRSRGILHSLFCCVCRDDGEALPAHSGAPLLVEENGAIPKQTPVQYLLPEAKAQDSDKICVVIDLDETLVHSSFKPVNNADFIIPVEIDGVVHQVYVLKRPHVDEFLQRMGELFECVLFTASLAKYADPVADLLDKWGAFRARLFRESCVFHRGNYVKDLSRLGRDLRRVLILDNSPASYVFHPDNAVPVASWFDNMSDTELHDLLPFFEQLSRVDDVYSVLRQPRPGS
- TEST PROTOCOL: CTDSP1 inhibitors, concentration-response, biochemical, absorbance readout, ultra-high-throughput screen actives (AID 540297)
- Assay type: functional
The source made the active and inactive calls.
IC50 by entry:

| STRUCTURE NOTATION | IC50 |
| --- | --- |
| CC[C@H](C)NC(=O)c1ccc(Cn2c(=S)[nH]c3c([nH]c4ccc(OC)cc43)c2=O)cc1 | 4.67 µM (active) |
| COc1cc(/C=C2\C(=N)N3N=C(S(C)(=O)=O)SC3=NC2=O)ccc1OS(=O)(=O)c1ccc(C)cc1 | 3.81 µM (active) |
| O=C(Cn1c(=O)oc2cc(S(=O)(=O)N3CCCCCC3)ccc21)NC1CCCCCCC1 | 9.64 µM (active) |
| CCOc1ccc(/N=C2/SCCCN2C)cc1 | 17 µM (active) |
| O=C(CSc1nc(-c2ccc(F)cc2)cs1)NC(=O)NCc1ccco1 | 18.8 µM (active) |
| Cc1ccc(/C=C/C(=O)Nc2ccc([N+](=O)[O-])c(NC(=O)/C=C/c3ccc(C)o3)c2)o1 | 5.89 µM (active) |
| O=C(/C=C/c1ccccc1Cl)Nc1ccc2c(c1)C(=O)NC2=O | 3.73 µM (active) |
| COc1ccccc1NC(=O)CSc1sc2c(O)cc(=O)[nH]c2c1C#N | 6.42 µM (active) |

---

- TARGET OR TEST SYSTEM: Polyadenylate-binding protein 1 (Homo sapiens)
- Sequence (P11940 whole entry, the tested form may be a part): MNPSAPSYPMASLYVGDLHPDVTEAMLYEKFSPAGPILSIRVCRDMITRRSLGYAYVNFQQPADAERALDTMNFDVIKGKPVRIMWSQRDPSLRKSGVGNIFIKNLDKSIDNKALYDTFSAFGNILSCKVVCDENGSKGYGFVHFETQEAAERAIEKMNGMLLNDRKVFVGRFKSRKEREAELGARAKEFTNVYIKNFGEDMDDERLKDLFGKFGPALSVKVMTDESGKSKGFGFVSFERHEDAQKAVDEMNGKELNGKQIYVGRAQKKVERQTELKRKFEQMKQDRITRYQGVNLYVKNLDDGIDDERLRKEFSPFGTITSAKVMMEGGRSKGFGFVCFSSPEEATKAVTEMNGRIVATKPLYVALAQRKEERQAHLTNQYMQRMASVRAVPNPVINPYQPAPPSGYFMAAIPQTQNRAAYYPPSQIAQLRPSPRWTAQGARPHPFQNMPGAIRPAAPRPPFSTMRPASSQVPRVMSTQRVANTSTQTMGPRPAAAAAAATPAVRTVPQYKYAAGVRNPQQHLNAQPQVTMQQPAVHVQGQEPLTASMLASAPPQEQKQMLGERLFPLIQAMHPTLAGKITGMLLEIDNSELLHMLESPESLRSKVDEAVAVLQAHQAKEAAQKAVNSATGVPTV
- TEST PROTOCOL: MLLE domain peptide-binding blockers, IC50 – biochemical, fluorescence polarization, FITC-PAM2 peptide, dose response (AID 602259)
- Format: functional
- CONDITION LABEL: read-out: IC50_Mean
The source made the active and inactive calls.
Outcomes: active, inactive

| COMPOUND | GROUP |
| --- | --- |
| CC(=O)N1CCN(c2ccc(NC(=S)NC(=O)COc3ccc(C(C)(C)C)cc3)cc2)CC1 | inactive |
| CC1CCCCN1C(=O)Cn1nnc(-c2cccnc2)n1 (centres undefined) | active |
| CCOC(=S)SCc1cn2cccc(C)c2n1 | inactive |
| Cc1ccc(N=C(S)c2ccc3ccccc3n2)c(C)c1 | inactive |
| CN=C(S)SCCOc1ccccc1 | inactive |
| CN(C)c1ccc(C=C2C(=O)NC(=S)NC2=O)cc1[N+](=O)[O-] | inactive |
| Oc1ccc(CN2CCCc3ccccc32)c2cccnc12 | inactive |
| COc1ccc(C(=S)N2CCC(C(N)=O)CC2)cc1Br | inactive |
| Cc1cc2cc(CNC(=O)Nc3ccccc3)ccc2n1C | inactive |

---

- TARGET OR TEST SYSTEM: Sentrin-specific protease 7 (Homo sapiens);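 note: Luminescence-based dose-response confirmation of ultra-high-throughput screening hits, measuring inhibition of SENP7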
- Sequence (Q9BQF6 whole entry): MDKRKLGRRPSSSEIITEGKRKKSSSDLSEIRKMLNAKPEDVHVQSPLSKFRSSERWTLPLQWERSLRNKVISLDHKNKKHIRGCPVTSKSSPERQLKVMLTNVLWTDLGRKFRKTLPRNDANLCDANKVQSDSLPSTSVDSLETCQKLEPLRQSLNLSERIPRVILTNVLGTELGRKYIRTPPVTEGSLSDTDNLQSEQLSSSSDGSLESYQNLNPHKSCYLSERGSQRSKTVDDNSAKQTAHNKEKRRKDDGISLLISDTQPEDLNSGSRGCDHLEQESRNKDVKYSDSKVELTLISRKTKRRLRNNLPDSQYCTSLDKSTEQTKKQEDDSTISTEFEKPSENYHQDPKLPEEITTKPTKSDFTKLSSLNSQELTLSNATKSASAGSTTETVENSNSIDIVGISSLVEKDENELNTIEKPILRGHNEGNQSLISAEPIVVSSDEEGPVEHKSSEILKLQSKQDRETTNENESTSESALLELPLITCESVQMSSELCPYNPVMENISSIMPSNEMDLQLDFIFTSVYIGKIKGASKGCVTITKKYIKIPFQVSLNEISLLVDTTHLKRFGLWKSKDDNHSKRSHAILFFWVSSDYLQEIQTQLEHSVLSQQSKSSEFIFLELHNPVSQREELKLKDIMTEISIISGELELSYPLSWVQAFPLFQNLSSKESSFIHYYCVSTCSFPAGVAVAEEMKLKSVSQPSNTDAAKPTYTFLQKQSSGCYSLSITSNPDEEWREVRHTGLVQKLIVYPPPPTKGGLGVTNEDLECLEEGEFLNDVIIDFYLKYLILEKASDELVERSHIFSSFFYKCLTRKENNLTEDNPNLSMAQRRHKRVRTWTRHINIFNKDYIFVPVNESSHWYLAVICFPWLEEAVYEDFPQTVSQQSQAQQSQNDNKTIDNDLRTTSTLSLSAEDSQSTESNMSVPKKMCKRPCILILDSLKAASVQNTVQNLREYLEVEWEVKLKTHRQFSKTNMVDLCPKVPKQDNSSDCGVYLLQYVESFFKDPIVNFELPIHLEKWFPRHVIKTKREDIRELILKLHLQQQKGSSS
- Type: functional
Calls of active or inactive are those of the source.
METRIC NAME: IC50

| STRUCTURE NOTATION | METRIC NAME | MEASURED RESULT |
| --- | --- | --- |
| CN(C(=O)c1ccccc1)c1nc2ccccc2s1 | IC50 | 6.81 µM (active) |
| CC(=O)N1C(=O)/C(=C2\SC(=S)N(NC(=O)c3ccc(O)cc3)C2=O)c2ccccc21 | IC50 | 35.3 µM (active) |
| CCc1ccc2oc(-c3ccc(NC(C)=O)cc3)nc2c1 | IC50 | 2.89 µM (active) |
| Cc1cc(N2CCCCC2)n2ncc(-c3ccccc3)c2n1 | IC50 | 6.65 µM (active) |
| Cn1c(=O)c2ncn(CC(=O)Nc3cccc(-c4nc5ccccc5s4)c3)c2n(C)c1=O | IC50 | 15.6 µM (active) |
| Cc1cccc(-c2cc3nc(-c4ccccc4)cc(O)n3n2)c1 | IC50 | 2.94 µM (active) |

---

IC50 by entry:
- TARGET OR TEST SYSTEM: Estrogen receptor beta (Homo sapiens, UniProt Q92731)
- TEST PROTOCOL: blockers of SRC-3 recruitment to ERβ – biochemical, ELISA, streptavidin-HRP readout, orthogonal assay, confirmation (AID 1060)

| STRUCTURE NOTATION | IC50 |
| --- | --- |
| CCn1c(SCC(=O)N2CCOCC2)nc2oc3c(Cl)cc(Cl)cc3c(=O)c2c1=O | 13.3 µM (not active) |
| N#Cc1c(NC(=O)CN2CCN(c3ccccc3)CC2)sc2c1CCC2 | 44.5 µM (not active) |
| O=C(Nc1ccc(F)cc1F)c1noc2c1CCC2 | > 50 µM (not active) |
| Cc1occc1-c1nnc(SCc2cc(=O)n3cc(Br)ccc3n2)n1C | 0.468 µM (not active) |

---

- TEST PROTOCOL: Luminescence Cell-Based Dose Retest to Confirm Inhibitors of Cancer Stem Cells. [Related pubchem assays (depositor defined):AID2717, AID2721]
- Format: functional
- CONDITION LABEL: Homo sapiens
The source made the active and inactive calls.
METRIC NAME: AC50

| STRUCTURE NOTATION | MEASURED RESULT |
| --- | --- |
| CC(C)N(C(=O)CSc1nc2ccccc2n1-c1ccccc1)C(C)C | 5.12 µM (active) |
| Cc1cc2nnc(SCC(=O)NCc3ccco3)n2c2ccccc12 | 2.9 µM (active) |
| O=c1c2c3c(sc2ncn1/N=C/c1ccc([N+](=O)[O-])o1)CCCC3 | 4.45 µM (active) |
| COc1ccc(-c2sc3ccc(OC)cc3c2C#CCCO)cc1 | 2.88 µM (active) |

---

- TARGET OR TEST SYSTEM: Type-1 angiotensin II receptor (Homo sapiens, UniProt P30556)
- Sequence (P30556 whole entry): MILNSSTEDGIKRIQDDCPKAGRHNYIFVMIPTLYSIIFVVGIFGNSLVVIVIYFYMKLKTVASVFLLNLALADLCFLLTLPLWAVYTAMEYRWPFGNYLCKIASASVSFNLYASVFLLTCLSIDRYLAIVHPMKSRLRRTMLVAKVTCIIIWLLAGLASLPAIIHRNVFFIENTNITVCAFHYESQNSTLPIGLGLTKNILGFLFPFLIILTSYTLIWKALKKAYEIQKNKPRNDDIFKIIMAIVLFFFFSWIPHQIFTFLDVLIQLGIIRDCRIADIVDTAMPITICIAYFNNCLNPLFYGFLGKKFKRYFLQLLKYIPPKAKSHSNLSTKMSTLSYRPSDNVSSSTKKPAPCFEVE
- TEST PROTOCOL: antagonism of angiotensin II type 1 receptor – cell-based, uHTS hits, selectivity assay for APJ receptor antagonist project, dose response (AID 463214);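 note: antagonist potency against angiotensin II stimulated AT1 response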
- Assay type: functional
Calls of active or inactive are those of the source.
IC50 by entry:
METRIC NAME: IC50

| STRUCTURE NOTATION | MEASURED RESULT |
| --- | --- |
| O=C1Nc2ccccc2/C1=N/c1ccc(Br)cc1 | 7.4 µM (active) |
| Cc1ccc(C(=O)COC(=O)CNC(=O)C(c2ccccc2)c2ccccc2)cc1[N+](=O)[O-] | 29.5 µM (not active) |
| CCOc1ccc(NC2=c3c(Br)c(C)ccc3=NC2=O)cc1 | 7.77 µM (active) |
| CC(C)(C)C(=O)NC(=S)NNC(=O)c1ccc(-c2ccccc2)cc1 | 10.8 µM (active) |
